# System: Escherichia coli TOP10
# PROTOCOL TEXT: shrunken log2 fold change of peptide-encoding DNA abundance (4.5 h post-induction vs induction); higher = less antimicrobial activity (less host growth inhibition)
# DETAILS: time post-induction: 4.5 h; library: site-saturation at positions 5, 18, 19, 20
# binarize shrunken log2 fold change: threshold -0.3 inclusive, high side satisfied, low side not satisfied

### Prompt Has RRIRTRPPRLPRPRPRPLTMPRP a recorded shrunken log2 fold change greater than or equal to -0.3?
### Response satisfied

### Prompt Quick check: does RRIRIRPPRLPRPRPRPNVSPRP have shrunken log2 fold change greater than or equal to -0.3?
### Response satisfied

### Prompt Could you please find out whether RRIRSRPPRLPRPRPRPPWFPRP has shrunken log2 fold change that meets -0.3 or exceeds it?
### Response satisfied

### Prompt Test whether the sequence RRIRHRPPRLPRPRPRPMFSPRP records shrunken log2 fold change of -0.3 or higher.
### Response satisfied

### Prompt API: above_or_equal(metric=shrunken log2 fold change, cutoff=-0.3) for item RRIRVRPPRLPRPRPRPQLEPRP
### Response satisfied

### Prompt Determine whether measured shrunken log2 fold change meets or exceeds -0.3 for RRIRFRPPRLPRPRPRPNYDPRP
### Response not satisfied

### Prompt Given the entry RRIRFRPPRLPRPRPRPMHVPRP , answer whether its shrunken log2 fold change meets or surpasses -0.3.
### Response satisfied

### Prompt Does the reported shrunken log2 fold change for RRIRFRPPRLPRPRPRPLVMPRP fall at or above the -0.3 mark?
### Response not satisfied

----------
# Tested on: Escherichia coli TOP10
# PROTOCOL TEXT: shrunken log2 fold change of peptide-encoding DNA abundance (4.5 h post-induction vs induction); higher = less antimicrobial activity (less host growth inhibition)
# DETAILS: time post-induction: 4.5 h; library: site-saturation at positions 5, 18, 19, 20
OBSERVABLE: shrunken log2 fold change
Just the number.

### Prompt // lookup shrunken log2 fold change | system=Escherichia coli TOP10 | key= RRIRKRPPRLPRPRPRPEMCPRP
### Response 1.1

### Prompt # returns recorded shrunken log2 fold change (system: Escherichia coli TOP10) for RRIRRRPPRLPRPRPRPQRDPRP
### Response 0.179

### Prompt State its shrunken log2 fold change on Escherichia coli TOP10: RRIRGRPPRLPRPRPRPFYMPRP
### Response -0.0339

### Prompt What shrunken log2 fold change appears in the records for this sequence with Escherichia coli TOP10? RRIRQRPPRLPRPRPRPKHCPRP
### Response 0.0753

### Prompt Find shrunken log2 fold change (Escherichia coli TOP10) for the entry RRIRDRPPRLPRPRPRPAIFPRP
### Response 0.617

### Prompt Could you share what shrunken log2 fold change was measured for RRIRGRPPRLPRPRPRPTSGPRP , tested on Escherichia coli TOP10?
### Response 0.917

### Prompt Query for Escherichia coli TOP10: what shrunken log2 fold change does the record show for RRIRCRPPRLPRPRPRPIMCPRP ?
### Response 0.0272

### Prompt Value wanted: shrunken log2 fold change (Escherichia coli TOP10) of entry RRIRSRPPRLPRPRPRPWTMPRP
### Response 0.0795

### Prompt What reported shrunken log2 fold change corresponds to RRIRKRPPRLPRPRPRPWECPRP on Escherichia coli TOP10?
### Response 0.033

### Prompt Form field - read-out: shrunken log2 fold change; system: Escherichia coli TOP10; submitted item: RRIRRRPPRLPRPRPRPNVCPRP
### Response 0.0167

### Prompt Form field - read-out: shrunken log2 fold change; system: Escherichia coli TOP10; submitted item: RRIRNRPPRLPRPRPRPTGIPRP
### Response 0.0288

### Prompt Lookup: shrunken log2 fold change / Escherichia coli TOP10 / RRIRIRPPRLPRPRPRPYARPRP
### Response -1.22

### Prompt Query for Escherichia coli TOP10: what shrunken log2 fold change does the record show for RRIRTRPPRLPRPRPRPELPPRP ?
### Response 0.499

### Prompt What shrunken log2 fold change appears in the records for this sequence with Escherichia coli TOP10? RRIRWRPPRLPRPRPRPIKPPRP
### Response -0.0158

### Prompt Provide value of shrunken log2 fold change for this record tested with Escherichia coli TOP10: RRIRYRPPRLPRPRPRPSWDPRP
### Response -0.429

### Prompt Entry RRIRHRPPRLPRPRPRPTLYPRP , system Escherichia coli TOP10: what shrunken log2 fold change was measured?
### Response -0.362

### Prompt Request body: readout shrunken log2 fold change, system Escherichia coli TOP10, query RRIRQRPPRLPRPRPRPFGIPRP . Return the value.
### Response -0.138

### Prompt Fill in the recorded shrunken log2 fold change for this sequence, with Escherichia coli TOP10 as test system: RRIRLRPPRLPRPRPRPICVPRP
### Response 0.151

### Prompt Form field: shrunken log2 fold change recorded for RRIRERPPRLPRPRPRPTERPRP with Escherichia coli TOP10 (enter value)
### Response 0.0425

### Prompt // fetch Escherichia coli TOP10 shrunken log2 fold change for RRIRIRPPRLPRPRPRPWIKPRP
### Response -0.0222

### Prompt Any idea what shrunken log2 fold change came out for RRIRDRPPRLPRPRPRPDSKPRP on Escherichia coli TOP10?
### Response 0.0365

### Prompt Observed shrunken log2 fold change on Escherichia coli TOP10 for RRIRERPPRLPRPRPRPGITPRP , please.
### Response -0.648

### Prompt Find shrunken log2 fold change (Escherichia coli TOP10) for the entry RRIRRRPPRLPRPRPRPRVHPRP
### Response 0.264

### Prompt Under Escherichia coli TOP10: shrunken log2 fold change value of RRIRDRPPRLPRPRPRPGQNPRP ?
### Response -0.0354

### Prompt Entry RRIRPRPPRLPRPRPRPMGLPRP , system Escherichia coli TOP10: what shrunken log2 fold change was measured?
### Response 0.0513

### Prompt Can you look up shrunken log2 fold change on Escherichia coli TOP10 for RRIRDRPPRLPRPRPRPGELPRP ?
### Response 0.684

### Prompt Form: Entry = RRIRPRPPRLPRPRPRPMSDPRP | System = Escherichia coli TOP10 | shrunken log2 fold change = ____
### Response -0.195

### Prompt Quick check: shrunken log2 fold change on Escherichia coli TOP10, item RRIRTRPPRLPRPRPRPYFNPRP ?
### Response -1.03

### Prompt GET /values?readout=shrunken log2 fold change&system=Escherichia coli TOP10&item= RRIRNRPPRLPRPRPRPWHLPRP
### Response -0.0913

### Prompt Could you share what shrunken log2 fold change was measured for RRIRHRPPRLPRPRPRPGQGPRP , tested on Escherichia coli TOP10?
### Response -0.104

### Prompt API: value(readout= shrunken log2 fold change, system= Escherichia coli TOP10, query= RRIRKRPPRLPRPRPRPFQPPRP )
### Response 0.0366

### Prompt Lab request: please report shrunken log2 fold change under test system Escherichia coli TOP10 for RRIRPRPPRLPRPRPRPLRQPRP;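 also: peptides expressed intracellularly from a pBAD plasmid library in pooled LB shake-flask culture, induced with 0.3% L-arabinose, DNA abundance read by NGS, three biological replicates, DESeq2 with apeglm shrinkage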
### Response 0.0954
